molecular target: T1, human collagen type I, acid soluble, extracted from placenta (Sigma C7774) (human, UniProt P02452 162-1218; P08123 80-1119); assay: dried collagen assay
T1 construct: tissue extract, gelled and dried in wells; also called dried human collagen; h-Collagen
T1 sequence (P02452 162-1218 limits assumed, chain 1 of 2): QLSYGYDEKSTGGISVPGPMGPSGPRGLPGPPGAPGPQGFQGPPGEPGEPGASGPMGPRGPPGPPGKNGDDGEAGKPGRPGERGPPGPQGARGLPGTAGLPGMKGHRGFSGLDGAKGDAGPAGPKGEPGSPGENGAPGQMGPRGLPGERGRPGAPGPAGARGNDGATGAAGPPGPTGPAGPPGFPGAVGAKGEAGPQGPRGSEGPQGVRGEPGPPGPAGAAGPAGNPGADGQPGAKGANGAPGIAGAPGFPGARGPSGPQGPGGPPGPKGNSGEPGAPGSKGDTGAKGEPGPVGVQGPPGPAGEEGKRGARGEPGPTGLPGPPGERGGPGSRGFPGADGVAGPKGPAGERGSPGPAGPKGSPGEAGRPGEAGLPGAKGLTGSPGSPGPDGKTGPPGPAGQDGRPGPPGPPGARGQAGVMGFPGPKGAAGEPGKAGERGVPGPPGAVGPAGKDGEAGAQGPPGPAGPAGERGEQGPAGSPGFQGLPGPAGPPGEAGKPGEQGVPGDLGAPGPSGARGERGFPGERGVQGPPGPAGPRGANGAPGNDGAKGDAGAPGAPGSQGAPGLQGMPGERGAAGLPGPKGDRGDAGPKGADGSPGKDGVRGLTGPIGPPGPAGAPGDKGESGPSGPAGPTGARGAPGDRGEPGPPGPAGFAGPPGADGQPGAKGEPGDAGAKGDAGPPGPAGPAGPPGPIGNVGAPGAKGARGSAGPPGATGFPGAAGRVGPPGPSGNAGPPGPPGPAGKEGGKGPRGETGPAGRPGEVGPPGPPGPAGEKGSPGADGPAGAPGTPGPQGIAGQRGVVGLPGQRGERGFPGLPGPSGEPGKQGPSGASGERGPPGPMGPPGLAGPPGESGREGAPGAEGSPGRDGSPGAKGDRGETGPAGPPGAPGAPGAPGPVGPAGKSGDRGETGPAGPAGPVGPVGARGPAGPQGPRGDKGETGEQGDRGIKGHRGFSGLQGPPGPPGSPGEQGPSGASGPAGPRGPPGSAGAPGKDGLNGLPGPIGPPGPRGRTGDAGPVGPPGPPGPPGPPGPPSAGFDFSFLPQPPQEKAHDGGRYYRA
T1 sequence (P08123 80-1119 limits assumed, chain 2 of 2): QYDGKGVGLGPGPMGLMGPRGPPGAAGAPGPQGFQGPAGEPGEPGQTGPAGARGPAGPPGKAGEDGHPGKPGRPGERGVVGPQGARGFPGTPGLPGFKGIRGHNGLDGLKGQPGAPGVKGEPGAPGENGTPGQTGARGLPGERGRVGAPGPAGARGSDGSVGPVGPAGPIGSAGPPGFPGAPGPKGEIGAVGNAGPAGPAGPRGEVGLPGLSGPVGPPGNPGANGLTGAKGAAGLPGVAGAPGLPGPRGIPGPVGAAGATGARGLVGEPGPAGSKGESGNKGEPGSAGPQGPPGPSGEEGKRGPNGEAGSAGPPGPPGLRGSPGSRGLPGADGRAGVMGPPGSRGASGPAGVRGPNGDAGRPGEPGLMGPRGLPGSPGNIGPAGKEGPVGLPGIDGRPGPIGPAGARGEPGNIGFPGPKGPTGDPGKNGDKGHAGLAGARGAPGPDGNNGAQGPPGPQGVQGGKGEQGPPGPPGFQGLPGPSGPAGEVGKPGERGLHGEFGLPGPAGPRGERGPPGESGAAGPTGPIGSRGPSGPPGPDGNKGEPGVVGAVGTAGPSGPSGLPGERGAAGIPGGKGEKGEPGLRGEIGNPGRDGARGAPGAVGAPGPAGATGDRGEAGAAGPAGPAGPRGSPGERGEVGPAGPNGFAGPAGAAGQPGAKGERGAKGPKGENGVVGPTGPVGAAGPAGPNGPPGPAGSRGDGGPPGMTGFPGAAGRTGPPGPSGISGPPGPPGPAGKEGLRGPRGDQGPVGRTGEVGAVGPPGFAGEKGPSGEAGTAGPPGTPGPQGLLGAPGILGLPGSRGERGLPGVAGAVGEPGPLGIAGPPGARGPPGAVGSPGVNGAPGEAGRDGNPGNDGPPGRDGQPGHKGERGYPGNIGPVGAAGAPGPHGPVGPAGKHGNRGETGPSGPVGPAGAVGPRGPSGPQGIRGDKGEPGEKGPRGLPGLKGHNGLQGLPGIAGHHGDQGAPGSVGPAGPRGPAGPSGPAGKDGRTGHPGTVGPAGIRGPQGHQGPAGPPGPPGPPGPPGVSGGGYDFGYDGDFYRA
Bridge positions count the residues as written; N and C are the ends. Square brackets hold non-standard residues; d marks the D form. Ends that are not written are not given here.
Each record's class is read off its % bound using these ranges: category 1: < 20%; category 2: ≥ 20% and < 50%; category 3: ≥ 50%

Consider the following illustrative entries.
DWTCSGDPYTWHCNYE (disulfide 4-13 (inferred), cyclic, disulfide) [SEQ ID NO 115]
category 2
DWTCS[dS]DEYTWHCNYE (disulfide 4-13 (inferred), cyclic, disulfide) [SEQ ID NO 180]
category 3

Challenge: Bin this entry: GQWTCSGDEY[dA]WHCNA[dE] (disulfide 5-14 (inferred), cyclic, disulfide) [SEQ ID NO 124]
Response given: category 2

Challenge: Hey, which category is QWTCSG[dD]EYTWHCNYE (disulfide 4-13 (inferred); not fully specified (N-terminus); printed as QWTCSGdEYTWHCNYE, cyclic, disulfide) [SEQ ID NO 169] in, do you know?
Response given: category 1

Challenge: Any idea which band PWQCYSDKTSWVCNLY (disulfide 4-13 (inferred), cyclic, disulfide) [SEQ ID NO 43] is in?
Response given: category 2

Challenge: Which class is correct for the following binder? GQWTCSGDAYTWHCNYE (disulfide 5-14 (inferred); not fully specified (C-terminus), cyclic, disulfide) [SEQ ID NO 144]
Response given: category 3
